Ref: PubChem BioAssay (Tox21)

# TARGET OR SYSTEM: Estrogen receptor (Homo sapiens) (UniProt P03372)
# Sequence (P03372 whole entry, looked up): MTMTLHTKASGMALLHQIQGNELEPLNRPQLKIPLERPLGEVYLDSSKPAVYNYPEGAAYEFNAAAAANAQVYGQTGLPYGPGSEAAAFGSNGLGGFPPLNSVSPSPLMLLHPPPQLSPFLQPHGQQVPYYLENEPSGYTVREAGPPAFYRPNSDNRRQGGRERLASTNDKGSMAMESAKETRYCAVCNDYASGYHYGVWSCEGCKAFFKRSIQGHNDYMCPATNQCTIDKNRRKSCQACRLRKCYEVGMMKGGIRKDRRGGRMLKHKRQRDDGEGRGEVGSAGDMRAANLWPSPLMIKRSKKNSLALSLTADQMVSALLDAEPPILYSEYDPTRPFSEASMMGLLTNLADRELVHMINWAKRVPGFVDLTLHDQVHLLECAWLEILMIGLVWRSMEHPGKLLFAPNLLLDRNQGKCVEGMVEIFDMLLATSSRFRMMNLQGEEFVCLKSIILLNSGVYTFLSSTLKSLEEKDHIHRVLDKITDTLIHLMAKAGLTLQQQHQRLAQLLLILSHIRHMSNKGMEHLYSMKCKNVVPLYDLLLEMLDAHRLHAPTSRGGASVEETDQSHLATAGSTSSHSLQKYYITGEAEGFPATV
# PROCEDURE TEXT: qHTS assay to identify small molecule antagonists of the estrogen receptor alpha (ER-alpha) signaling pathway using the BG1 cell line in the presence of 0.1 nM 17-beta-estradiol (AID 1259244); further: nearly all actives have a fitted effect of over 50% in size
# CONDITION INFO: VM7Luc4E2 (BG1) ERE-luciferase, antagonist mode, 0.1 nM E2, 22 h; series mostly up to 92.4 µM
Inconclusive results are not listed. Calls of active or inactive are those of the source. The call rests on the fitted dose curve; in most records, active means well fitted inhibition curve with a large enough effect in the repeat runs; inconclusive means weak or mixed curves; inactive means no such curve, though single readings can be large or run the other way.
Reply using exactly one outcome from active, inactive

Field: example entries. Status: answers known.
COMPOUND	ASSIGNED CLASS
O=[N+]([O-])c1ccc(F)c([N+](=O)[O-])c1	active
OC(c1ccc(Cl)cc1)(c1ccc(Cl)cc1)c1cccnc1	inactive
CN(C)c1ccc(N(C)C)cc1	active
ClCC(Br)CBr (centres undefined)	inactive
COP(=S)(OC)Oc1ccc([N+](=O)[O-])cc1Cl	inactive

[in] Tell me the recorded outcome of this test for CCBr .
[out] inactive

[in] Each compound tested received a call. Report the one for O=C(CBr)OCc1ccccc1 .
[out] inactive

[in] Any idea what this test logged for O=C(CCl)c1ccc(Cl)cc1Cl ?
[out] inactive

[in] Write down the call the test reported for this compound. Item: COC(=O)C(Br)CBr (centres undefined)
[out] inactive

[in] Given COC(N)=O , state the outcome it received in this test.
[out] inactive

[in] What outcome does the record of this test show for CCOP(=S)(OCC)Oc1nc(Cl)c(Cl)cc1Cl ?
[out] inactive

###

# PROCEDURE TEXT: qHTS assay to identify small molecule agonists of the vitamin D receptor (VDR) signaling pathway - cell viability counter screen (AID 743224); further: nearly all actives have a fitted effect of over 50% in size
# CONDITION INFO: VDR-bla HEK293T viability, CellTiter-Glo luminescence, 16 h; series mostly up to 62.6 µM
Records with an inconclusive call do not appear. Calls of active or inactive are those of the source. Calls come from the whole dose curve; as a rule, active = well fitted cell-killing curve with a large enough effect in the repeat runs; inconclusive = weak or mixed curves, or effect the other way; inactive = no such curve, though single readings can be large or run the other way.
Can you answer with just one of these options? active, inactive

Look over these answered cases.
COMPOUND	ASSIGNED CLASS
COC1=CC(=O)O[C@@H](CCc2ccccc2)C1	inactive
Cc1ccc(N)cc1C	inactive
CCOS(C)(=O)=O	inactive
CN1C(=O)NC(=O)C(C)(C2=CCCCC2)C1=O (centres undefined)	inactive
CC/C(=N\OC/C=C/Cl)C1=C(O)CC(C2CCOCC2)CC1=O (centres undefined)	inactive
CCc1ccc(C(=O)NN(C(=O)c2cc(C)cc(C)c2)C(C)(C)C)cc1	inactive
CCOP(=S)(OCC)Oc1nc(Cl)c(Cl)cc1Cl	inactive
CNP(=O)(OC)Oc1ccc(C(C)(C)C)cc1Cl (centres undefined)	inactive
O=C(NCc1cccnc1)Nc1ccc([N+](=O)[O-])cc1	inactive
O=Cc1ccc(Cl)cc1Cl	inactive

[in] Any idea what this test logged for COc1c(C(C)(C)C)cc([N+](=O)[O-])c(C)c1[N+](=O)[O-] ?
[out] inactive

[in] Please state the recorded outcome for this compound: COC(N)=O
[out] inactive

[in] # outcome recorded in this test, key = O=C(C(Cl)(Cl)Cl)C(Cl)(Cl)Cl
[out] inactive

[in] Any idea what this test logged for Clc1cc(C(Cl)(Cl)Cl)cnc1Cl ?
[out] inactive

[in] Please indicate how the test categorized CS/C(C)=N/OC(=O)N(C)SN(C)C(=O)O/N=C(\C)SC .
[out] inactive

[in] Each compound tested received a call. Report the one for CCOP(=S)(OCC)SCn1nnc2ccccc2c1=O .
[out] active

[in] Short answer needed: outcome of this test for COc1nn(C(=O)NS(=O)(=O)c2ccccc2OC(F)(F)F)c(=O)n1C ?
[out] inactive

[in] Any idea what this test logged for IC(I)=C(I)I ?
[out] active

[in] How did this test come out for NC(=O)CI ?
[out] inactive

[in] // outcome(item) with item = CC1(C)[C@H](C=C(Cl)Cl)[C@@H]1C(=O)O[C@@H](C#N)c1cccc(Oc2ccccc2)c1
[out] inactive

[in] So what was the verdict on C/C=C/C=O in this test?
[out] inactive

[in] GET /call?item= O=C1CN=C(c2ccccc2)c2cc(Cl)ccc2N1CC1CC1 returns the recorded outcome of this test.
[out] inactive

[in] State the result this test recorded for CCC(Cl)CCl (centres undefined) .
[out] inactive

[in] What call does the record list for COP(=S)(Oc1cc(Cl)c(Br)cc1Cl)c1ccccc1 (centres undefined) ?
[out] active

###

# PROCEDURE TEXT: qHTS assay to identify small molecule agonists of the retinoic acid receptor (RAR) signaling pathway (AID 1159553)
# CONDITION INFO: C3RL4 RARE luciferase reporter, agonist, 6 h; series mostly up to 73.3 µM
Inconclusive results are not listed. Active and inactive are the calls of the source. Calls come from the whole dose curve; as a rule, active = well fitted activation curve with a large enough effect in the repeat runs; inconclusive = weak or mixed curves, or effect the other way; inactive = no such curve, though single readings can be large or run the other way.
I would appreciate it if you answered using one of these outcomes: T (active), F (inactive)

For orientation, consider the following solved cases.
COMPOUND	ASSIGNED CLASS
Nc1nc(=S)[nH][nH]1	F
ClCCCCBr	F
CCOC(=O)C(Cl)C(C)=O (stereo unspecified)	F

[in] Please share the test call associated with COC(=O)C(Br)CBr (stereo unspecified) .
[out] F

[in] Recorded test call requested for O=C1CN=C(c2ccccc2)c2cc(Cl)ccc2N1CC1CC1
[out] F

[in] Status in this test for Oc1ccc(Cl)c(Cl)c1Cl ?
[out] F

[in] What call does the record list for O=C(NCc1cccnc1)Nc1ccc([N+](=O)[O-])cc1 ?
[out] F

[in] GET /call?item= C[C@H]1CNCCc2ccc(Cl)cc21 returns the recorded outcome of this test.
[out] F

[in] I would be grateful if you could indicate the recorded call for COC(=O)c1cncn1C(C)c1ccccc1 (stereo unspecified) .
[out] F

[in] What classification did COCCOCCO end up with in this test?
[out] F

[in] Tell me the recorded outcome of this test for CN1[C@@H]2CC[C@H]1CC(OC(=O)c1cc(Cl)cc(Cl)c1)C2 (stereo partly specified) .
[out] F

[in] Hi, do you know how CC(=O)C(C)(C)C came out in this test?
[out] F

[in] Which outcome was entered for the compound CC(C)(C)C(O)C(Oc1ccc(Cl)cc1)n1cncn1 (stereo unspecified) in this test?
[out] F

[in] I would be grateful if you could indicate the recorded call for CCCCCCCCCC(=O)O[C@H]1CC[C@H]2[C@@H]3CCC4=CC(=O)CC[C@@H]4[C@H]3CC[C@]12C .
[out] F

[in] Identify the outcome logged in this assay for the compound shown: CNC(C)Cc1ccccc1OC (stereo unspecified)
[out] F

[in] Which outcome did this test record for the compound CC(C)=CCOc1c2occc2cc2ccc(=O)oc12 ?
[out] F

[in] # fetch the recorded call for C=CC(=O)OC(C)(C)C here
[out] F

[in] Check the results log: what was the call for C=CC(=O)NCNC(=O)C=C ?
[out] F

[in] Answer briefly: the call reported for CO/C=C(/C(=O)OC)c1ccccc1COc1cccc(C(F)(F)F)n1 in this assay.
[out] F

[in] State the result this test recorded for CCOP(O)OCC .
[out] F

###

# TARGET OR SYSTEM: Nuclear receptor subfamily 1 group I member 3 (Homo sapiens)
# PROCEDURE TEXT: qHTS assay to identify small molecule agonists of the constitutive androstane receptor (CAR) signaling pathway (AID 1224839); further: nearly all actives have a fitted effect of over 15% in size;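 on activation: HepG2 cells stably carrying human CAR and a CYP2B6 luciferase reporter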
# CONDITION INFO: HepG2 hCAR CYP2B6-luciferase, agonist mode, 24 h; series mostly up to 92.4 µM
Inconclusive results are not listed. Active and inactive are the calls of the source. Calls follow the shape of the dose curve; as a rule, active = well fitted activation curve with a large enough effect in the repeat runs; inconclusive = weak or mixed curves; inactive = no such curve, though single readings can be large or run the other way.
Tick one outcome: active, inactive

Answered cases to consult:
COMPOUND	ASSIGNED CLASS
S=C=NCc1ccccc1	inactive
CC[C@H]1C[C@H]2[C@@H]3CCC4=CC(=O)CC[C@@H]4[C@H]3CC[C@]2(C)[C@H]1O	inactive
Nc1nc(N)nc(N)n1	inactive
O=[N+]([O-])c1ccccc1CCl	inactive
NCCCNCCCN	inactive
COc1c(C(C)(C)C)cc([N+](=O)[O-])c(C)c1[N+](=O)[O-]	active
C[C@H]1CNCCc2ccc(Cl)cc21	inactive
Cc1ccccc1CCl	inactive
N#C/C(N)=C(/N)C#N	inactive
N#CCC#N	inactive

[in] Could you please tell me the result logged for O=C1c2ccccc2C(=O)C1C(=O)C(c1ccccc1)c1ccccc1 in this assay?
[out] inactive

###

# TARGET OR SYSTEM: Cytochrome P450 3A4 (Homo sapiens) (UniProt P08684)
# Sequence (P08684 whole entry, looked up): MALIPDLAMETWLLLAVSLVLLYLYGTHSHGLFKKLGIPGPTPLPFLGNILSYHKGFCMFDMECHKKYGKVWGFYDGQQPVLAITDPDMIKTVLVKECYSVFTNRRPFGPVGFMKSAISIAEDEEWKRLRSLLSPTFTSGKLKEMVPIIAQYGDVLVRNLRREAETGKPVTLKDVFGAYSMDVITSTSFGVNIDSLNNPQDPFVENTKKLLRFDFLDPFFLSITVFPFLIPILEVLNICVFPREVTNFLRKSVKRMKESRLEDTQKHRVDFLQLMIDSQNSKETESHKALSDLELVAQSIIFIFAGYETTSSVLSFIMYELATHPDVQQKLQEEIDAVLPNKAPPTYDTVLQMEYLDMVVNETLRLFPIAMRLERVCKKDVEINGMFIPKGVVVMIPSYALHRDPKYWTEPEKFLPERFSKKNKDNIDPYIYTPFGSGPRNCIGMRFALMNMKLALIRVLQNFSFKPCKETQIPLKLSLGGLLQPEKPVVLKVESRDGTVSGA
# PROCEDURE TEXT: Cytochrome P450 Family 3 Subfamily A Member 4 (CYP3A4) small molecule antagonists: luciferase reporter qHTS assay (AID 1671201); further: nearly all actives have a fitted effect of over 50% in size; further: potency means the concentration at half of the fitted maximal effect
# CONDITION INFO: P450-Glo CYP3A4 enzyme, luciferin luminescence, 1 h; series mostly up to 115 µM
Records with an inconclusive call do not appear. Activity calls are given as the source filed them. The call rests on the fitted dose curve; in most records, active means well fitted inhibition curve with a large enough effect in the repeat runs; inconclusive means weak or mixed curves; inactive means no such curve, though single readings can be large or run the other way.
MEASURED PARAMETER: Potency

Examples from the recorded data:
MOLECULE	Potency
Cl/C=C\Cl	inactive
C[C@H]1CNCCc2ccc(Cl)cc21	inactive
O=C(NCc1cccnc1)Nc1ccc([N+](=O)[O-])cc1	0.796 µM (active)
CN1[C@@H]2CC[C@H]1CC(OC(=O)c1cc(Cl)cc(Cl)c1)C2 (some centres not stated)	inactive

[in] Give its Potency value. Item: COc1cc(Cl)c(OC)cc1Cl
[out] 15.9 µM (active)

[in] Can you share its Potency? I mean this molecule: CN1C[C@H](CNC(=O)OCc2ccccc2)C[C@@H]2c3cccc4c3c(cn4C)C[C@H]21
[out] inactive

[in] Can you look up the measured Potency of C=CC(=O)OCC(C)O (configuration not stated) for me?
[out] inactive
